# Tested System: Tumor necrosis factor (Homo sapiens)
# Sequence (P01375 whole entry): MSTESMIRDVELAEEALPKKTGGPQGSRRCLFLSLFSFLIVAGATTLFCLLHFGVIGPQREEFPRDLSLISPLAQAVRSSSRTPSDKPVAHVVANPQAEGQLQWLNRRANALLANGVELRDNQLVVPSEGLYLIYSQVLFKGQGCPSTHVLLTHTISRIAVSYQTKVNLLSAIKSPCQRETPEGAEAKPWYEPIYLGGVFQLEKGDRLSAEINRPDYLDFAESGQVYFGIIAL
# Protocol Details: TNF-alpha production in PBMC by ELISA method
pIC50: −log10 of the molar value.
pIC50 reference

[
  {
    "Smiles Entry": "CCCn1c(=O)n(CCCC(=O)O)c(=O)c2nccnc21",
    "pIC50": "< 3.70"
  },
  {
    "Smiles Entry": "Cn1c(=O)n(CCCC(=O)O)c(=O)c2ccccc21",
    "pIC50": "< 3.70"
  },
  {
    "Smiles Entry": "Cn1c(=O)n(CCCC(=O)O)c(=O)c2nccnc21",
    "pIC50": "< 3.70"
  },
  {
    "Smiles Entry": "Cn1c(=O)n(CCCC(=O)O)c(=O)c2nsnc21",
    "pIC50": "< 3.70"
  },
  {
    "Smiles Entry": "COC(=O)c1ccc(Cn2c(=O)c3c(nc(Br)n3C)n(C)c2=O)cc1",
    "pIC50": "< 3.70"
  },
  {
    "Smiles Entry": "CCOC(=O)CCCn1c(=O)c2nc(-c3ccccc3)cnc2n(C)c1=O",
    "pIC50": "< 3.70"
  },
  {
    "Smiles Entry": "Cn1cnc2c1c(=O)n(CCCC(=O)O)c(=O)n2C",
    "pIC50": "< 3.70"
  },
  {
    "Smiles Entry": "COC(=O)c1ccc(Cn2c(=O)c3c(ncn3C)n(C)c2=O)cc1",
    "pIC50": "< 3.70"
  },
  {
    "Smiles Entry": "Cn1c(=O)[nH]c(=O)c2[nH]c(=S)[nH]c21",
    "pIC50": "< 3.70"
  },
  {
    "Smiles Entry": "CCOC(=O)c1ccc(Cn2c(=O)c3c([nH]c(=S)n3C)n(C)c2=O)cc1",
    "pIC50": "< 3.70"
  }
]
